Attribution: patent US9889122B2

molecular target: human α7 receptor (Homo sapiens, UniProt P36544); construct: host or cells: rat GH4C1 cell line; assay: α7 NNR flux assay (FDSS Ca assay, Calcium-4 dye, positive allosteric modulation of acetylcholine response); assay type: cell-based; details: human α7 receptor stably expressed in rat GH4C1 cell line; acetylcholine 20 μM (~EC100); % modulation relative to reference PNU-120596 set to 100%
Sequence (P36544 23-502): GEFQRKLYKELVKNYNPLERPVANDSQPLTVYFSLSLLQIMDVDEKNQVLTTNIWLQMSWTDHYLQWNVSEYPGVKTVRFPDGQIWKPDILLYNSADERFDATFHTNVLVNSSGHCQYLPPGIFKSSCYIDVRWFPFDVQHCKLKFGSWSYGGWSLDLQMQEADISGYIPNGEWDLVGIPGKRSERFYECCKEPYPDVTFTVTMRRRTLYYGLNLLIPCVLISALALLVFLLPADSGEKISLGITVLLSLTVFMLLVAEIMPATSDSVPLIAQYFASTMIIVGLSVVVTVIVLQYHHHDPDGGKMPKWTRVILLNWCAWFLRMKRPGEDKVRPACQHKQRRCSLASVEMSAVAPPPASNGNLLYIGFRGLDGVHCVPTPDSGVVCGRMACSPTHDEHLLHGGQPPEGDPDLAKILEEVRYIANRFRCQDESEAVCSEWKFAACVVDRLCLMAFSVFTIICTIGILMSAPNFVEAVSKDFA
measured.attribute: EC50 (nM)

Please review the following examples before continuing.
{"columns": ["smiles.entry", "EC50 (nM)"],
 "data": [
  ["C[C@H](NC(=O)[C@H]1C[C@@H]1c1ccccc1)c1ccc(C(F)(F)F)nc1", 5200],
  ["[2H]C([2H])([2H])C([2H])([2H])Oc1ccc([C@H](CO)NC(=O)[C@H]2C[C@@H]2c2ccc(F)cc2)cn1", 700]
]}

[P] [2H]C([2H])([2H])C([2H])([2H])Oc1ccc([C@H](CO)NC(=O)[C@H]2C[C@@H]2c2ccccc2)cn1
[Q] C[C@H](NC(=O)[C@H]1C[C@@H]1c1ccccc1)c1ccc(Cl)nc1
stdin: Could you tell me which of P and Q has the lower EC50 reading? Returns: label corresponding to the selected item.
stdout: P

###

biological target: human α7 receptor (Homo sapiens, UniProt P36544); assay: α7 NNR flux assay (FDSS Ca assay, Calcium-4 dye, positive allosteric modulation of acetylcholine response); conditions: human α7 receptor stably expressed in rat GH4C1 cell line; acetylcholine 20 μM (~EC100); % modulation relative to reference PNU-120596 set to 100%
measured.attribute: EC50 (µM)

{"columns": ["smiles.entry", "endpoint.value"],
 "data": [
  ["O=C(N[C@@H](CO)c1ccc(OC2CCC2)nc1)[C@H]1C[C@@H]1c1ccc(F)cc1", 0.79]
]}

[I] CCOc1ccc([C@H](CO)NC(=O)[C@H]2C[C@@H]2c2ccccc2)nc1
[II] [2H]C([2H])(C)Oc1ccc([C@H](CO)NC(=O)[C@H]2C[C@@H]2c2ccc(F)cc2)cn1
[III] CCOc1ccc([C@H](CO)NC(=O)[C@H]2C[C@@H]2c2ccccc2)cn1
stdin: Sort entries by EC50 from minimum to maximum value. Ranked list of labels, please, in the requested order.
stdout: II, III, I
(II: 0.7 µM, III: 1 µM, I: 2 µM)

###

biological target: UniProtKB P36544; assay: α7 NNR flux assay (FDSS Ca assay, Calcium-4 dye, positive allosteric modulation of acetylcholine response); conditions: human α7 receptor stably expressed in rat GH4C1 cell line; acetylcholine 20 μM (~EC100); % modulation relative to reference PNU-120596 set to 100%
measured.attribute: EC50 (nM)

{"columns": ["compound", "EC50 (nM)"],
 "data": [
  ["CCc1ccc([C@H](C)NC(=O)[C@H]2C[C@@H]2c2ccccc2)cn1 [Compound 8]", 3700],
  ["C[C@H](NC(=O)[C@H]1C[C@@H]1c1ccccc1)c1ccc(C#N)nc1 [Compound 5]", 7700],
  ["C[C@H](NC(=O)[C@H]1C[C@@H]1c1ccccc1)c1cnc2c(c1)OCCO2 [Compound 16]", 6800],
  ["C[C@H](NC(=O)[C@H]1C[C@@H]1c1ccccc1)c1ccc(OCC(F)(F)F)nc1 [Compound 10]", 1900]
]}

[A] C[C@H](NC(=O)[C@H]1C[C@@H]1c1ccccc1)c1ccc(OC2COC2)nc1 [Compound 19]
[B] O=C(N[C@@H](CO)c1ccc(OC2CCC2)nc1)[C@H]1C[C@@H]1c1cccc(F)c1 [Compound 41]
[C] CCCOc1ccc([C@H](CO)NC(=O)[C@H]2C[C@@H]2c2ccccc2)cn1 [Compound 21]
[D] CCOc1ccc([C@H](CO)NC(=O)[C@H]2C[C@@H]2c2cccc(F)c2)cn1 [Compound 27]
stdin: Ascending by EC50, please: list the compounds accordingly. In your reply, arrange the labels in the requested order.
stdout: D, C, B, A
(D: 390 nM, C: 640 nM, B: 1600 nM, A: 2400 nM)

###

molecular target: human α7 receptor (Homo sapiens, UniProt P36544); assay: α7 NNR flux assay (FDSS Ca assay, Calcium-4 dye, positive allosteric modulation of acetylcholine response); conditions: human α7 receptor stably expressed in rat GH4C1 cell line; acetylcholine 20 μM (~EC100); % modulation relative to reference PNU-120596 set to 100%
pEC50: −log10 of the molar value.
measured.attribute: pEC50

[P] O=C(N[C@@H](CO)c1ccc(C(F)(F)F)nc1)[C@H]1C[C@@H]1c1ccccc1
[Q] CCOc1ccc([C@H](C)NC(=O)[C@H]2C[C@@H]2c2ccccc2)cn1
stdin: Which value of pEC50 is numerically greater: that of P or that of Q ? Response format: the label of the selected entry.
stdout: Q

###

target: human α7 receptor (Homo sapiens, UniProt P36544); assay: α7 NNR flux assay (FDSS Ca assay, Calcium-4 dye, positive allosteric modulation of acetylcholine response); conditions: human α7 receptor stably expressed in rat GH4C1 cell line; acetylcholine 20 μM (~EC100); % modulation relative to reference PNU-120596 set to 100%
pEC50: −log10 of the molar value.
measured.attribute: pEC50

{"columns": ["smiles.entry", "pEC50"],
 "data": [
  ["C[C@H](NC(=O)[C@H]1C[C@@H]1c1ccccc1)c1cnc2c(c1)OCO2", 5.25],
  ["COC[C@H](NC(=O)[C@H]1C[C@@H]1c1ccccc1)c1ccc(O[C@H]2CCOC2)nc1", 5.77],
  ["COC[C@H](NC(=O)[C@H]1C[C@@H]1c1ccccc1)c1ccc(O[C@@H]2CCOC2)nc1", 6.00],
  ["CCOc1ccc([C@H](COC)NC(=O)[C@H]2C[C@@H]2c2ccccc2)cn1", 6.34]
]}

[P] COc1ccc([C@H](C)NC(=O)[C@H]2C[C@@H]2c2ccccc2)cn1
[Q] CC(C)Oc1ccc([C@H](C)NC(=O)[C@H]2C[C@@H]2c2ccccc2)cn1
stdin: Pick the one with the larger pEC50: P vs Q Mark your selection by writing its label.
stdout: Q
(Q: 6.17, P: 5.24)

[a] Cc1ccc([C@H](C)NC(=O)[C@H]2C[C@@H]2c2ccccc2)nc1
[b] C[C@H](NC(=O)[C@H]1C[C@@H]1c1ccccc1)c1ccc(O[C@H]2CCOC2)nc1
stdin: # min-compare on pEC50 between a and b When you have decided, please share the label of that item.
stdout: a

###

molecular target: human α7 receptor (Homo sapiens, UniProt P36544); test: α7 NNR flux assay (FDSS Ca assay, Calcium-4 dye, positive allosteric modulation of acetylcholine response); conditions: human α7 receptor stably expressed in rat GH4C1 cell line; acetylcholine 20 μM (~EC100); % modulation relative to reference PNU-120596 set to 100%
measured.attribute: EC50 (µM)

{"columns": ["smiles.entry", "EC50, µM"],
 "data": [
  ["[2H]C([2H])([2H])COc1ccc([C@H](CO)NC(=O)[C@H]2C[C@@H]2c2ccc(F)cc2)cn1", 0.71],
  ["O=C(N[C@@H](CO)c1ccc(O[C@@H]2CCOC2)nc1)[C@H]1C[C@@H]1c1ccccc1", 2.9],
  ["Cc1ccc([C@H](C)NC(=O)[C@H]2C[C@@H]2c2ccccc2)cn1", 8.1]
]}

[a] COCc1ccc([C@H](C)NC(=O)[C@H]2C[C@@H]2c2ccccc2)cn1
[b] CCOc1ncc([C@H](C)NC(=O)[C@H]2C[C@@H]2c2ccccc2)cn1
[c] O=C(N[C@@H](CO)c1ccc(OC2CCC2)nc1)[C@H]1C[C@@H]1c1ccccc1
stdin: Sort ascending by EC50. Note for the reader: the ranking is given by listing the labels in the order requested.
stdout: c, b, a
(c: 0.89 µM, b: 3.7 µM, a: 6.2 µM)

[1] Cc1ccc([C@H](CO)NC(=O)[C@H]2C[C@@H]2c2ccccc2)cn1
[2] C[C@H](NC(=O)[C@H]1C[C@@H]1c1ccccc1)c1ccc(O[C@@H]2CCOC2)nc1
stdin: Min EC50? 1 | 2 Selection: enter the item's label.
stdout: 2

###

target: human α7 receptor (Homo sapiens); experiment: α7 NNR flux assay (FDSS Ca assay, Calcium-4 dye, positive allosteric modulation of acetylcholine response); settings: human α7 receptor stably expressed in rat GH4C1 cell line; acetylcholine 20 μM (~EC100); % modulation relative to reference PNU-120596 set to 100%
measured.attribute: EC50 (µM)

{"columns": ["compound", "EC50 (µM)"],
 "data": [
  ["[2H]C([2H])([2H])COc1ccc([C@H](CO)NC(=O)[C@H]2C[C@@H]2c2cccc(F)c2)cn1 [Compound 39]", 0.72]
]}

[P] COc1ccc([C@H](CO)NC(=O)[C@H]2C[C@@H]2c2ccccc2)cn1 [Compound 24]
[Q] CCCOc1ccc([C@H](CO)NC(=O)[C@H]2C[C@@H]2c2cccc(F)c2)cn1 [Compound 29]
[R] N#Cc1ccc([C@H](CO)NC(=O)[C@H]2C[C@@H]2c2ccccc2)nc1 [Compound 23]
stdin: Put the compounds in ascending order of EC50. I'd appreciate it if you listed the labels in the requested order.
stdout: Q, P, R
